All figures here come from patent US20210347873A1.

# system: T1, cynomolgus BLyS (full length, arginine to histidine at position 132) on CHO-K1 cells (cynomolgus, UniProt Q9Y275 1-285 (human entry))
# T1 construct: also called cyno BLyS; CHO-K1 cynoBLyS
# T1 chain: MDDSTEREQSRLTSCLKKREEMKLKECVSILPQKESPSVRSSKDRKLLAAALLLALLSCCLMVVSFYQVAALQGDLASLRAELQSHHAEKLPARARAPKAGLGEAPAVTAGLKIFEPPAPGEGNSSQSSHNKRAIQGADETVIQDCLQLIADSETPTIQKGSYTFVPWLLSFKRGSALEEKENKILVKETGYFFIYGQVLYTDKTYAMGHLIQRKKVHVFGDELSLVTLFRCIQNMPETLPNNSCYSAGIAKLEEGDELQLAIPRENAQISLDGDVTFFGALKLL
# assay-comment: flow cytometry, CHO-K1 cynoBLyS cells, antibody 13.3 nM
assay-metric: MFI (MFI)
Output spec: scalar in MFI, unitless text.

Below: 2 binders and their reported MFI.
binder	reading-unit	data-value
89A2G5E7 (antibody, V domains shown, Mouse hybridoma monoclonal antibody purified on Protein G) VH: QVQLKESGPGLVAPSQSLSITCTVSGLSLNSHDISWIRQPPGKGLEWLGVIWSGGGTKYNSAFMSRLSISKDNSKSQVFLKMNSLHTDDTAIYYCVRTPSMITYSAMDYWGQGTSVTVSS VL: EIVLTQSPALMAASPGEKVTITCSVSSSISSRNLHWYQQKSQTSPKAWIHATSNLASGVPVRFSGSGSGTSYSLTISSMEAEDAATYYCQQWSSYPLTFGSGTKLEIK	MFI	829
97E7B3F2 (antibody, V domains shown, Mouse hybridoma monoclonal antibody purified on Protein G) VH: EVQLQQSGPELVKSGASVKISCKASGYTFTDHKMHWVKQSHGKSLEWIGYISPYNGGTGYNQKFKSKVTLTVDISSSTAYMELRSLTSEDSAVYYCARWGFYDVMDSWGQGTSVTVSS VL: DVLLTQTPLSLPVSLGDQASISCRSSQTIVHIIGDTYLEWYLQKPGQSPKLLIYKVSNRFSGVPDRFSGSGAGTDFTLKISRVEAEDLGVYYCFQGSHVPRTFGGGTKLEIK	MFI	710

Any idea what its MFI is? The binder is 93C6F10D3 (antibody, V domains shown, Mouse hybridoma monoclonal antibody purified on Protein G) VH: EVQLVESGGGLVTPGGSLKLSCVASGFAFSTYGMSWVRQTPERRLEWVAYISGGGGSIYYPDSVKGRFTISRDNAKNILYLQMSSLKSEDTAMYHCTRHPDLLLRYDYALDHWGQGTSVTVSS VL: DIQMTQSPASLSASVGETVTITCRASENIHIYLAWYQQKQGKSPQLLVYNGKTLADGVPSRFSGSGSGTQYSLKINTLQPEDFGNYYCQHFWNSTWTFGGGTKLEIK
714
